Tested on: P12-Ichikawa
Assay: AUC of viability dose-response curve (% viability x log10 dose units); higher = less sensitive
Conditions: RPMI 5 mM glucose + 10% FBS; 48 h

{"smiles_string": "CC(C)C[C@H](CN)CC(=O)O", "AUC of viability dose-response curve": 458}
{"smiles_string": "Fc1cc(-c2cccc3ncc(-c4cnn(C5CCNCC5)c4)nc23)cc(F)c1CN1CCOCC1", "AUC of viability dose-response curve": 423}
{"smiles_string": "COc1ccc(N(C(=O)Oc2c(C)cccc2C)c2ccnc(Nc3ccc(N4CCN(C)CC4)cc3)n2)c(OC)c1", "AUC of viability dose-response curve": 457}
{"smiles_string": "C=C(C)[C@@H]1CC[C@]2(C)CC[C@]3(C)[C@H](CC[C@@H]4[C@@]5(C)CC[C@H](O)C(C)(C)[C@@H]5CC[C@]43C)[C@@H]12", "AUC of viability dose-response curve": 467}
